Target: Ubiquitin-activating enzyme e1, putative (Leishmania donovani (strain BPK282A1)) (UniProt E9BSI1)
Sequence (E9BSI1 as listed by the source): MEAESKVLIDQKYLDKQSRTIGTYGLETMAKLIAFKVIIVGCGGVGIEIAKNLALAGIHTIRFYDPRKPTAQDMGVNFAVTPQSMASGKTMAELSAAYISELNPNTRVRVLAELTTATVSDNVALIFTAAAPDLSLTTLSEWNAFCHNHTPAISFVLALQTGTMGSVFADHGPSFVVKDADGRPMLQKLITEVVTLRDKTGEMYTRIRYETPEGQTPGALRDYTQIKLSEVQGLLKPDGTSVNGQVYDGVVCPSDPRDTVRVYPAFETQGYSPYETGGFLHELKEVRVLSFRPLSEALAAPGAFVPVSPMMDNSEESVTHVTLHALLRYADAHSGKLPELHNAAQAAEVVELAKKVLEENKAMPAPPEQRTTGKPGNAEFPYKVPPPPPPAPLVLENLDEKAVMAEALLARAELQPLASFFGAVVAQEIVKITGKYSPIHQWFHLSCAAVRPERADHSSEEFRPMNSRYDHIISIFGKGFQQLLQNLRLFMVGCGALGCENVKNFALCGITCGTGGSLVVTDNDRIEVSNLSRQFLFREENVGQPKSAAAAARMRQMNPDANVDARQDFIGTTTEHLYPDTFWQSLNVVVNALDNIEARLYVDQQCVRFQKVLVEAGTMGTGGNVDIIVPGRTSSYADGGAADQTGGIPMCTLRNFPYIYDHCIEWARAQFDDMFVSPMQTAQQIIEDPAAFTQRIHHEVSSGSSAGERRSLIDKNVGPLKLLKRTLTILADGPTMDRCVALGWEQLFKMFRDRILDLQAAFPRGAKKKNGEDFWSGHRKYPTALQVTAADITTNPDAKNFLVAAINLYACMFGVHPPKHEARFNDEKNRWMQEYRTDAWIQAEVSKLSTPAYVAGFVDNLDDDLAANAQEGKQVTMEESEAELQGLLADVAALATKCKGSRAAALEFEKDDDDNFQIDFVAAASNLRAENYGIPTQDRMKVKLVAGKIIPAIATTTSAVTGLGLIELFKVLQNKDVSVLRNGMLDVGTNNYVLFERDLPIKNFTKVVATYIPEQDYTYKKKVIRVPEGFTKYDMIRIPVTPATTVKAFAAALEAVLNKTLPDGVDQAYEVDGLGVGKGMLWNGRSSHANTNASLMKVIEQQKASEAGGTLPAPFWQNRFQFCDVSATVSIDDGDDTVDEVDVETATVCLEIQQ
Assay: Leishmania donovani Ubiquitin Activating Enzyme (LdE1)
Type: functional
Parameters: scale not given: direction of the effect not stated beside the values
Conditions: 30 µM
Results with a measured potency or affinity are listed apart.

| COMPOUND | Percent Effect [%] |
| --- | --- |
| Cc1nc(C)n(CC2CCCN(CCC(=O)N3CCCCC3)C2)n1 (stereo unspecified) | -2.6 |
| c1cnnc(N2CCCC(NCc3cn4ccccc4n3)C2)c1 (stereo unspecified) | 23.4 |
| CC(C)(C)n1ncc2c1NC(=O)CC2c1ccccc1 (stereo unspecified) | 5.41 |
| Cc1cccc(C(=O)N2CCCN(Cc3cnn(C)c3)CC2)n1 | -5.13 |
| COCC1COCCC12CCN(CCc1ccccc1)CC2 (stereo unspecified) | 2.7 |
| Cc1cc(C)n(C2CN(CC(=O)N(C)Cc3ccc(C)o3)C2)n1 | 5.26 |

---

Molecular target: Proteasome subunit beta (Trypanosoma cruzi) (UniProt O96673)
Sequence (O96673 as listed by the source): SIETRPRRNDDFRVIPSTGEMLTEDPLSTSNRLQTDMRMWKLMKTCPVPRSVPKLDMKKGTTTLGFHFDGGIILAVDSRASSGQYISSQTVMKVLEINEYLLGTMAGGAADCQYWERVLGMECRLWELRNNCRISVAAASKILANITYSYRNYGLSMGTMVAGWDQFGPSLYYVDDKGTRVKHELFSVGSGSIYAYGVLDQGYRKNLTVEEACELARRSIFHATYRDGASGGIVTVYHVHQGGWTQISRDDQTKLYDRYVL
Assay: Trypanosoma cruzi proteasome chymotrypsin-like activity (TcProtChymo) assay. Also: in the data most compounds retested in dose-response had high values.
Type: functional
Parameters: scale not given: direction of the effect not stated beside the values
Settings: 9.37 µM
List of Percent Effect values.

| MOLECULE | Percent Effect (%) |
| --- | --- |
| CCCS(=O)(=O)N1CCC2(CN(c3cnn(C)c3)C(=O)CN2C)C1 (configuration not stated) | 20.4 |
| COC(=O)[C@H](C)NC(=O)c1cc(-c2cccc(Cl)c2)no1 | 21.2 |
| CC(=O)c1ccc(N2CCCC(CO)(CCOc3ccccc3)C2)nc1 (configuration not stated) | 19.5 |
| COc1ccc(OC)c(CCNC(=O)NC(C)Cn2ccnc2)c1 (configuration not stated) | 5.35 |
| COCc1cc(O)nc(C2CCCN(Cc3cc(OC)ccc3F)C2)n1 (configuration not stated) | -0.312 |
| CCc1nnsc1C(=O)NCCn1nc2ccccn2c1=O | 8.8 |
| COc1ccccc1OCC(=O)NS(=O)(=O)c1ccc(C)s1 | 6.49 |

---

Biological target: Protein translocase subunit SecA (Escherichia coli (strain K12))
Experiment: Assay to Identify E. coli SecA ATPase Inhibitors
Type: functional
Design: scale not given: direction of the effect not stated beside the values
Details: 30 µM
Measured potencies and affinities stand elsewhere.

| COMPOUND | UNITS | Percent Effect |
| --- | --- | --- |
| COc1ccc(-c2ccnc3c2C(=O)CCC3)cc1 | % | 0.627 |
| Cc1ccccc1N1CCN(C(=O)c2ccc[nH]2)C(C)C1 (stereo not given) | % | -7.84 |
| CN1CCCC(Cc2cncc(C(=O)NCC3CC3)c2)C1 (stereo not given) | % | -4.88 |
| COc1ccc(CC(=O)N2CCCN(c3ccc(C#N)cc3)CC2)cc1 | % | -3.96 |
| COc1ccc(CC(=O)NC2(C)CCS(=O)(=O)C2)cc1F (stereo not given) | % | -0.834 |

---

Molecular target: Sialic acid-binding Ig-like lectin 9 (Homo sapiens) (UniProt Q9Y336)
Sequence (Q9Y336 whole entry): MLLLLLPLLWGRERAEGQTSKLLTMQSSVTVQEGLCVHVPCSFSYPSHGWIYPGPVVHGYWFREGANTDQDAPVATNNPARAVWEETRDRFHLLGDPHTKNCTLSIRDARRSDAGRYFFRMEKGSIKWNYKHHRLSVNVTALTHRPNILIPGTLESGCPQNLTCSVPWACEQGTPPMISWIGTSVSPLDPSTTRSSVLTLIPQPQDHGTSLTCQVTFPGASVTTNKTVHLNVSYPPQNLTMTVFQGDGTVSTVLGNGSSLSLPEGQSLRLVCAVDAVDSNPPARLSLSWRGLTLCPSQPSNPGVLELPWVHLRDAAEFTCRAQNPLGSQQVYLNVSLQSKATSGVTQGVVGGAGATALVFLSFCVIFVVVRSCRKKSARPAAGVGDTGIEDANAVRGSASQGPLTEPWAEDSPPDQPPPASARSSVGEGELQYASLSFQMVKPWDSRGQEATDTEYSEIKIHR
Experiment: Hs-Siglec9 ALPHAscreen SOP 20170721
Parameters: scale not given: direction of the effect not stated beside the values
Conditions: 10 µM

| COMPOUND | UNITS | Percent Effect |
| --- | --- | --- |
| N#Cc1ccc(OCCOc2ccccc2C(=O)N2CCOCC2)cc1 | % | 10.7 |
| Cn1nc2c(cc1=O)CN(Cc1nc(-c3cccs3)no1)CC2 | % | 3.65 |
| Cc1nc(NC2CCCC2)cc(C2CCN2C(=O)c2ccccc2)n1 (centres undefined) | % | 0.412 |
| CCn1cnnc1C1CCN(C(=O)COCCc2ccccc2)CC1 | % | -7.71 |

---

Molecular target: Sialic acid-binding Ig-like lectin 9 (Homo sapiens) (UniProt Q9Y336)
Test: Hs-Siglec9 ALPHAscreen SOP 20170721
Set-up: scale not given: direction of the effect not stated beside the values
Details: 10 µM
List of Percent Effect values.

| COMPOUND | UNITS | Percent Effect |
| --- | --- | --- |
| CCN1CC2(CC1=O)CN(Cc1cnn(C)c1)CCN(C(=O)C(C)C)C2 (stereo not given) | % | -1.78 |
| CCNC(=O)c1ccc(CNCc2c(C)nn(C)c2N(C)C)cc1 | % | 1.18 |
| CS(=O)(=O)NCc1nnc2n1CCN(Cc1cccs1)C2 | % | -1.91 |
| CC(C(=O)N1CCCN(c2ccc(C#N)cc2)CC1)n1ccnc1 (stereo not given) | % | -1.34 |
| COCCN1CCC(CNC(=O)c2cc(C)cc(C)c2)C1 (stereo not given) | % | 15.5 |
| CC(C)(C#N)C(=O)N1CCCC(c2cc(C(F)(F)F)[nH]n2)C1 (stereo not given) | % | 19.3 |
| CCN1CCC(NC(=O)CN2CCc3c(nc(C4CC4)n3C)C2)CC1 | % | 13.3 |
| COC(=O)CC(c1ccc(OC)c(OC)c1)c1oc(C)cc(=O)c1O (stereo not given) | % | 0.92 |
| COc1cccc(CN(C)C(=O)CN2CCN(c3nccn3C)CC2)c1 | % | 7.67 |
| COc1ccccc1OCCN1CCC(N2CCNC2=O)CC1 | % | 3.47 |
| Cc1n[nH]c(C)c1C1COCCN1C(=O)c1cc(Cl)c[nH]1 (stereo not given) | % | 3.4 |
| CN(Cc1cccs1)C(=O)CN1CCCC1Cn1cncn1 (stereo not given) | % | 2.24 |
| O=C(Cc1cn2ccsc2n1)N1CCCC(n2cncn2)C1 (stereo not given) | % | -3.95 |
| CC(=O)N1CCN(C(=O)c2cc(-n3cnnn3)ccc2Cl)CC1 | % | 0.287 |
| O=C(NCc1nn(-c2ccccc2)c2c1CCC2)N1CCSCC1 | % | -13.1 |
| CC(C)N(C)C(=O)C1=NOC2(CCN(C(=O)c3ccccn3)C2)C1 (stereo not given) | % | 5.09 |
| Cc1cc(N2CCN(Cc3ccccc3)CC(O)C2)cc(C)n1 (stereo not given) | % | 11.4 |
| Cc1cc(F)ccc1OC1(C(=O)O)CCN(Cc2ccncc2)CC1 | % | 19.8 |
| O=C(CCc1cccc(F)c1F)N1CCN(Cc2ccco2)CC1 | % | 9.76 |
| Cc1ccc(S(=O)(=O)NC(=O)c2cccc(OCC(N)=O)c2)s1 | % | -5.61 |

---

Tested on: Trypanosoma cruzi
Assay: Trypanosoma cruzi phosphomannomutase and mannose-1-phosphate guanylyltransferase assay
Format: functional
Design: scale not given: direction of the effect not stated beside the values
Conditions: 10 µM
List of Percent Effect values.
EXPERIMENTAL READOUT: Percent Effect (%)

| COMPOUND | EXPERIMENTAL READOUT | UNITS | MEASURED NUMBER |
| --- | --- | --- | --- |
| Cc1ccc(N2CCN(C(=O)COc3nccc(C)n3)CC2)nn1 | Percent Effect | % | 7.44 |
| Cc1nc(C(C)(C)NC(=O)Nc2cccc(C#N)c2)no1 | Percent Effect | % | 8.81 |
| O=C(CCCNc1ncccn1)N1CCCC(n2cccn2)C1 (configuration not stated) | Percent Effect | % | -3.18 |
| Cc1ccc(CCN2CCC(N(C)Cc3noc(C4CC4)n3)C2)cc1 (configuration not stated) | Percent Effect | % | 0.0939 |
| COc1ccccc1OCC(=O)NS(=O)(=O)c1ccc(Br)s1 | Percent Effect | % | -2.61 |
| CC(C)CN1C[C@H]2CCN(Cc3cccnc3)CC[C@H]2S1(=O)=O | Percent Effect | % | -2.05 |
| Cc1cc(CN(C)C(=O)C2CCCN(C(=O)c3cccs3)C2)no1 (configuration not stated) | Percent Effect | % | 3.64 |
| Cc1nc(CNC(=O)NCCc2ccc(N(C)C)cc2)cs1 | Percent Effect | % | 1.23 |
| CCOc1ccccc1-c1noc(CN(C)Cc2cnn(C)c2)n1 | Percent Effect | % | -2.12 |
| c1cnc2c(c1)cc([C@H]1CCCO1)n2CCN1CCOCC1 | Percent Effect | % | -0.593 |
| CCc1nc(CCNC(=O)NC2CC2)sc1C | Percent Effect | % | 0 |
| COc1cc(C(=O)NS(=O)(=O)c2cccc(C#N)c2)cc(Cl)c1OC | Percent Effect | % | 3.44 |
| Cc1cccc(CN2CCC3(CCN(Cc4ccccn4)C3)C2=O)c1 (configuration not stated) | Percent Effect | % | -2.81 |
| Cc1nc[nH]c1CN1CCN(C(=O)c2cccs2)[C@H]2CS(=O)(=O)C[C@H]21 | Percent Effect | % | -2.81 |
| CN(Cc1cccnc1)CC1CCCN1c1cccnn1 (configuration not stated) | Percent Effect | % | -5.58 |
| CCC(=O)N1CCC(Cc2ccccc2-c2ccccc2)(C(N)=O)C1 (configuration not stated) | Percent Effect | % | 3.94 |
| Cc1cc(C)n(CC2CCCN2Cc2c(C)noc2C)n1 (configuration not stated) | Percent Effect | % | 6.51 |
| CCCn1ccc(C(=O)N2CCOC(c3nc(-c4cccs4)no3)C2)n1 (configuration not stated) | Percent Effect | % | -1.18 |
| CCC1CN(CCC(=O)N(C)C)CCN1CCOC (configuration not stated) | Percent Effect | % | 2.74 |
| CN(Cc1ccccc1)CC(O)Cn1cnc2ccsc2c1=O (configuration not stated) | Percent Effect | % | 8.36 |
| O=C(NCCNc1cnccn1)N1CCN(Cc2cccnc2)CC1 | Percent Effect | % | 3.38 |
| Cc1cncc(C(=O)N2Cc3ccccc3C3(CCN(C)CC3)C2)c1 | Percent Effect | % | -4.38 |
| CN1CC(c2ccccc2)CC12CCN(C(=O)c1ccc(F)cc1)CC2 (configuration not stated) | Percent Effect | % | -2.04 |
| Cn1ccc(C(=O)N2CCN(c3cc(C#N)ccn3)CC2)cc1=O | Percent Effect | % | 4.06 |
| CC(=O)Nc1nc(C(=O)Nc2ccc(F)cc2)cs1 | Percent Effect | % | -1.86 |
| COc1ccc(C(C(=O)O)N2CCCN(C3CCCCC3)CC2)cn1 (configuration not stated) | Percent Effect | % | 6.55 |
| CC(C)c1noc(CN2CCN(C(=O)c3ccccc3F)CC2)n1 | Percent Effect | % | -2.32 |
| COC(=O)C(C)(C)NC(=O)C1CC(=O)N(C2CCCC2)C1 (configuration not stated) | Percent Effect | % | 3.17 |
| c1ccc(CN2CCOCC3(CCN(C4CCOCC4)C3)C2)cc1 (configuration not stated) | Percent Effect | % | -4.58 |
| CCOC(=O)N1CCN(C(=O)c2ccc3ccn(C)c3c2)CC1 | Percent Effect | % | 7.47 |
| Cc1noc(C)c1CN(C)C(=O)c1ccc(NC2CC2)nc1 | Percent Effect | % | 1.59 |
| CN(C)C(CNC(=O)c1cc2c([nH]c1=O)CCCC2=O)c1ccsc1 (configuration not stated) | Percent Effect | % | 4.55 |
| CC(C(=O)N1CCc2ccccc2C1)n1cc(Br)cn1 (configuration not stated) | Percent Effect | % | 4.42 |
| COc1cccc2c1OCC(CNC(=O)CNC(N)=O)C2 (configuration not stated) | Percent Effect | % | 7.33 |
| COc1ccc(CN2CCn3cc(Cn4cccn4)nc3C2)cc1 | Percent Effect | % | -5.03 |
| Cc1cc(C)n(CC2CN(CC(=O)Nc3nncs3)CCO2)n1 (configuration not stated) | Percent Effect | % | -6.37 |
| CN(Cc1ccc(F)cc1)C(=O)CN1CCCC(Cn2cncn2)C1 (configuration not stated) | Percent Effect | % | 3.49 |
